Cited source for all entries: patent US6517866B1

assay: Example 1: plasma sertraline pharmacokinetics, 200 mg bolus vs 15 hr divided dosing; type: in vivo; details: male, human, oral
EXPERIMENTAL ENDPOINT: Tmax (h)
A number alone suffices; assume h.

If you can, please state the reported Tmax value of CN[C@H]1CC[C@@H](c2ccc(Cl)c(Cl)c2)c2ccccc21 [Sertraline] .
16

---

test: Example 2: plasma sertraline pharmacokinetics, 200 mg bolus vs 7 hr divided dosing; type: in vivo; conditions: male, human, oral, 25 mg per hr for 7 hr, mean
EXPERIMENTAL ENDPOINT: Tmax
Form field: result (number plus unit)

If you can, please state the reported Tmax value of `CN[C@H]1CC[C@@H](c2ccc(Cl)c(Cl)c2)c2ccccc21` .
10.4 h

---

experiment: Example 1: plasma sertraline pharmacokinetics, 200 mg bolus vs 15 hr divided dosing; format: in vivo; settings: male, human, oral
EXPERIMENTAL ENDPOINT: Cmax

If you can, please state the reported Cmax value of `CN[C@H]1CC[C@@H](c2ccc(Cl)c(Cl)c2)c2ccccc21` .
32 ng/mL
